pIC50: −log10 of the molar value.
Assign pIC50 to each entry below.

Param item: Cc1cc2[nH]c(=O)c(=O)[nH]c2nc1S(=O)(=O)Nc1ccc(-c2ccc(F)c(Cl)c2)c(Cl)c1 [Compound 10] ; param system: hemolysin alpha from Staphylococcus aureus (Staphylococcus aureus); output pIC50: 7.00 to 7.52

So the reported pIC50 for Cc1cc2[nH]c(=O)c(=O)[nH]c2nc1S(=O)(=O)Nc1cnc(-c2ccc(F)cc2)c(Cl)c1 [Compound 12] , on hemolysin alpha from Staphylococcus aureus (Staphylococcus aureus), turned out to be 7.00 to 7.52

Measured pIC50 for this entry Cc1nc2cc(-c3ccc(NS(=O)(=O)c4nc5[nH]c(=O)c(=O)[nH]c5cc4C)cc3Cl)cnc2o1 [Compound 39] on hemolysin alpha from Staphylococcus aureus (Staphylococcus aureus): > 7.52

Sample CC(C)c1cc2[nH]c(=O)c(=O)[nH]c2nc1S(=O)(=O)Nc1ccc(OC(F)(F)F)cc1 [Compound 34] , system: hemolysin alpha from Staphylococcus aureus (Staphylococcus aureus). Its pIC50 is 7.00 to 7.52

For the molecule Cc1nc2cc(-c3ncc(NS(=O)(=O)c4ccc5[nH]c(=O)c(=O)[nH]c5n4)cc3Cl)ccc2o1 [Compound 31] , the measured pIC50 on hemolysin alpha from Staphylococcus aureus (Staphylococcus aureus) was 6.00 to 7.00

Form field pIC50 for item Cc1cc2[nH]c(=O)c(=O)[nH]c2nc1S(=O)(=O)Nc1ccc(C(C)C)cc1 [Compound 19] on hemolysin alpha from Staphylococcus aureus (Staphylococcus aureus): 6.00 to 7.00

Bench note, hemolysin alpha from Staphylococcus aureus (Staphylococcus aureus): entry Cc1cc(NS(=O)(=O)c2nc3[nH]c(=O)c(=O)[nH]c3cc2C)ccc1Br [Compound 18] , its pIC50 = 6.00 to 7.00

Bench note, hemolysin alpha from Staphylococcus aureus (Staphylococcus aureus): Cc1cc2[nH]c(=O)c(=O)[nH]c2nc1S(=O)(=O)Nc1ccc(-c2ccc3cc[nH]c3c2)c(Cl)c1 [Compound 16] , pIC50 reads > 7.52

Record COc1ccc(-c2ccc(NS(=O)(=O)c3nc4[nH]c(=O)c(=O)[nH]c4cc3C)cc2Cl)cc1F [Compound 14] ; system hemolysin alpha from Staphylococcus aureus (Staphylococcus aureus); pIC50 = 7.00 to 7.52

Note to self: pIC50 of Cc1cc2[nH]c(=O)c(=O)[nH]c2nc1S(=O)(=O)Nc1ccc(-c2ccc(C#N)cc2)c(Cl)c1 [Compound 17] with hemolysin alpha from Staphylococcus aureus (Staphylococcus aureus) was 7.00 to 7.52

Query Cc1nc2ccc(-c3ccc(NS(=O)(=O)c4ccc5[nH]c(=O)c(=O)[nH]c5n4)cc3Cl)cc2o1 [Compound 28] on hemolysin alpha from Staphylococcus aureus (Staphylococcus aureus); pIC50 returned: > 7.52

// pIC50 (hemolysin alpha from Staphylococcus aureus (Staphylococcus aureus)) for O=c1[nH]c2cc(Br)c(S(=O)(=O)Nc3ccc(OC(F)(F)F)cc3)nc2[nH]c1=O [Compound 25] = 7.00 to 7.52

Form field pIC50 for item O=c1[nH]c2ccc(S(=O)(=O)Nc3ccc(OC(F)(F)F)cc3)nc2[nH]c1=O [Compound 26] on hemolysin alpha from Staphylococcus aureus (Staphylococcus aureus): 6.00 to 7.00

# value of pIC50, hemolysin alpha from Staphylococcus aureus (Staphylococcus aureus), item Cc1cc2[nH]c(=O)c(=O)[nH]c2nc1S(=O)(=O)Nc1ccc(-c2ccc(F)cc2)c(C(F)(F)F)c1 [Compound 32] = 6.00 to 7.00
